assay: MTT assay, HeLa; format: cell-based; details: human, HeLa cells; at 50 µM; triplicate; read-out: HeLa Cell Line (%cytotoxicity ±SEM)
Measure Name: cytotoxicity at 24 h, 50 µM (%)
# output: bare number, implied unit %

{"Compound": "Nc1nc2ccccc2n1C(=O)NS(=O)(=O)c1ccc(-c2ccccc2)cc1 [1y]", "cytotoxicity at 24 h, 50 µM / %": 32.6}
{"Compound": "O=C(NS(=O)(=O)c1ccc(Cl)cc1)n1c(-c2ccccc2)nc2ccccc21 [1n]", "cytotoxicity at 24 h, 50 µM / %": 22.4}
{"Compound": "Cc1ccc(S(=O)(=O)NC(=O)n2c(N)nc3cc([N+](=O)[O-])ccc32)cc1 [1b]", "cytotoxicity at 24 h, 50 µM / %": 21.6}
{"Compound": "COc1ccc(S(=O)(=O)NC(=O)n2c(Cl)nc3ccccc32)cc1 [1p]", "cytotoxicity at 24 h, 50 µM / %": 20.5}

Okay, now this compound:
Q) Indicate its recorded cytotoxicity at 24 h, 50 µM; the compound in question is Cc1ccc(S(=O)(=O)NC(=O)n2c(N)nc3cc(Cl)ccc32)cc1 [1x]
A) 29.8

----------
target: h-P2Y4 (Homo sapiens); construct: host or cells: human 1321N1 astrocytoma cells, stably transfected; assay: Calcium mobilization assay, h-P2Y4 transfected 1321N1 astrocytoma cells; type: cell-based
Sequence (P51582 whole entry): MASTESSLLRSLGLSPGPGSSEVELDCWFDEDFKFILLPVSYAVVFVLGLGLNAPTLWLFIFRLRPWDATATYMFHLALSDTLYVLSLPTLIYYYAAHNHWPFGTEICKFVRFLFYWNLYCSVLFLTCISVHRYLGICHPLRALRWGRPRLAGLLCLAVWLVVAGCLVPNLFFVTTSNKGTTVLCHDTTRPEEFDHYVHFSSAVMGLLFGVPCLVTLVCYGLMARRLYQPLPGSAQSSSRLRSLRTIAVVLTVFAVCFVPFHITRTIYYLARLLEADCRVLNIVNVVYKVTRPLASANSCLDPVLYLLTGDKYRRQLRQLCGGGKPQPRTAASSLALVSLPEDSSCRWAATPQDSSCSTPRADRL
Measure Name: pIC50
Here pIC50 is given on a logarithmic scale as minus log10 of the concentration in mol/L.

Q) # return recorded pIC50 for entry Nc1c(S(=O)(=O)O)cc(Nc2ccc(Nc3nc(Cl)nc(Nc4cccc(S(=O)(=O)O)c4)n3)c(S(=O)(=O)O)c2)c2c1C(=O)c1ccccc1C2=O [Reactive Blue 2, reference compound]
A) 5.08

----------
Here the recorded cytotoxicity at 24 h, 50 µM is given for each entry.
assay: MTT assay, non-transfected 1321N1 astrocytoma cells; type: cell-based, human; settings: human, non-transfected 1321N1 astrocytoma cells; at 50 µM; non-transfected astrocytoma 1321N1 cells; triplicate; read-out: H-1321N1 Cell Line (%cytotoxicity ±SEM)
Write the answer as a number in %, unit excluded.

Solved cases (4 shown):
{"Compound": "Cc1ccc([N+](=O)[O-])cc1S(=O)(=O)NC(=O)n1c(N)nc2cc(Cl)ccc21 [1j]", "Measure Name": "cytotoxicity at 24 h, 50 µM", "Reading Unit": "%", "Result": 44.3}
{"Compound": "Nc1nc2cc([N+](=O)[O-])ccc2n1C(=O)NS(=O)(=O)c1cc(Cl)cc(Cl)c1O [1a]", "Measure Name": "cytotoxicity at 24 h, 50 µM", "Reading Unit": "%", "Result": 27.4}
{"Compound": "O=C(NS(=O)(=O)c1ccc(Cl)cc1)n1c(Cl)nc2ccccc21 [1s]", "Measure Name": "cytotoxicity at 24 h, 50 µM", "Reading Unit": "%", "Result": 14.4}
{"Compound": "Cc1ccc(S(=O)(=O)NC(=O)n2c(N)nc3ccccc32)cc1 [1w]", "Measure Name": "cytotoxicity at 24 h, 50 µM", "Reading Unit": "%", "Result": 23.2}

Q) Tell me its cytotoxicity at 24 h, 50 µM given O=C(NS(=O)(=O)c1ccc(-c2ccccc2)cc1)n1c(-c2ccccc2)nc2ccccc21 [1l] as the entry.
A) 47.2
